Property: log10 of MIC; scope: individual compounds
System: Staphylococcus aureus
Experiment: Antibacterial activity against Staphylococcus aureus ATCC 6538p after 24 hrs by two fold serial dilution method
Type: functional
measurement_label: log10 of MIC (log10 of the value in µg/mL)

- CCCCCC(c1ccc(O)cc1O)c1ccc(O)cc1O: 1.10
- CC1(C)S[C@@H]2[C@H](NC(=O)[C@H](N)c3ccccc3)C(=O)N2[C@H]1C(=O)O [AMPICILLIN]: -0.41
- O=[N+]([O-])c1ccc(C(c2cc(Br)c(O)cc2O)c2cc(Br)c(O)cc2O)cc1: 1.40
- Oc1ccc(C(c2cc(Br)c(O)cc2O)c2c(Cl)cccc2Cl)c(O)c1 (configuration not stated): 1.10
- CCCCCC(c1ccc(O)cc1O)c1cc(Br)c(O)cc1O (configuration not stated): 0.80
- Oc1cc(O)c(C(c2cc(Br)c(O)cc2O)c2c(Cl)cccc2Cl)cc1Br: 0.80
- Oc1ccc(C(c2ccc(O)cc2O)c2cc(Br)c(O)cc2O)cc1 (configuration not stated): 0.80
- CCCCCC(c1cc(Br)c(O)cc1O)c1cc(Br)c(O)cc1O: 0.49
- O=[N+]([O-])c1cccc(C(c2cc(Br)c(O)cc2O)c2cc(Br)c(O)cc2O)c1: 0.49
- O=[N+]([O-])c1ccc(C(c2ccc(O)cc2O)c2cc(Br)c(O)cc2O)cc1 (configuration not stated): 2.00
- Oc1ccc(C(c2cc(Br)c(O)cc2O)c2cc(Br)c(O)cc2O)cc1: -0.11
- O=[N+]([O-])c1cccc(C(c2ccc(O)cc2O)c2cc(Br)c(O)cc2O)c1 (configuration not stated): 1.10
